A compilation of IC50 values for cGMP-inhibited 3',5'-cyclic phosphodiesterase 3A (Homo sapiens) from the published literature.

# molecule, IC50 (nM)
rows = [
    ("CCc1cc2c(C3=NN(CCCCOc4ccc(C5=NNC(=O)CC5C)cc4)C(=O)CC3)ccc(OC)n2n1 (stereo not given)", 0.27),
    ("Cn1nc(-c2ccc(Cl)cc2)s/c1=N\\c1ccc(O)c(C(=O)O)c1", 5580),
    ("CCn1c(Nc2ccncc2F)nc2c(C3CCCN(C(=O)C4(C#N)CC4)C3)csc2c1=O (stereo not given)", 17),
    ("COc1ccccc1CC1=C(Nc2ccc(C3=NNC(=O)CC3C)cc2)CCCC1=O (stereo not given)", 0.39),
    ("CCCOc1cc2c(N3CCCC(c4ccccc4)C3)ncnc2cc1OC (stereo not given)", 98),
]
